Each item that follows carries a reported growth.
# System: HCC-2998 colon
# Protocol description: NCI-60 one-dose screen, 48 h (100 = growth as untreated, 0 = no growth, -100 = all killed)
# Setup conditions: 10 µM unless noted
Compounds without any hit were thinned out: in the full panel of roughly 83,000, 20% have a hit.
# value in %; strip the unit string

Molecule	growth, %
COc1ccc(N)cc1OC	111
CC(=O)Cc1ccc2c(c1)OCO2	102

Next molecule, growth to be filled in.
Exercise: Assign growth to the following record: CCCC[C@H]1C(=O)O[C@H](C)[C@H](NC(=O)c2cccc(NC=O)c2O)C(=O)O[C@@H](C)[C@@H]1OC(=O)CC(C)C
Key: 56.6

---

# Test system: A498 renal
# Protocol description: NCI-60 one-dose screen, 48 h
# Setup conditions: 10 µM unless noted
# Method: Growth inhibition of the A498 human tumor cell line is measured as a screen for anti-cancer activity. Cells are grown in 96 well plates and exposed to the test compound for 48 hours. Compounds are tested at a single concentration, which is 10^-5 M for most compounds. The reported endpoint is percent growth (GI% or GIPRCNT), where numbers from 0 - 100% represent growth inhibition, and numbers from -100% - 0 represent cell death. For example, a value of 40 represents 60% growth inhibition. […]
The panel holds about 83,000 compounds, 20% with a hit somewhere; the sample as a whole holds those more often. Active and inactive are the calls of the source. The calls were made as follows: active = growth percent below 10; inactive = the rest.
Bench note: report the call from 1 = active, 0 = inactive

Exercise: Which result was noted for this compound in the test: CCOP(=O)(OCC)C(=O)N(CC)CC
Key: 0

Exercise: Which result was noted for this compound in the test: O=C(O)c1ccccc1N(CCO)CCCl
Key: 0

Exercise: Which result was noted for this compound in the test: C/C(=N/OC(=O)N(C)C)c1ccc(Cl)c(Cl)c1
Key: 0

Exercise: Which result was noted for this compound in the test: CC[C@H](C)[C@H](NC(=O)[C@H]1CCCCN1C)C(=O)N(C)[C@H](C[C@@H](OC(C)=O)c1nc(C(=O)N[C@@H](Cc2ccccc2)C[C@H](C)C(=O)O)cs1)C(C)C
Key: 1

Exercise: Which result was noted for this compound in the test: CC[C@H](C)[C@H]1O[C@]2(C=C[C@@H]1C)C[C@@H]1C[C@@H](C/C=C(\C)[C@@H](O[C@H]3C[C@H](OC)[C@@H](O[C@H]4C[C@H](OC)[C@@H](NC)[C@H](C)O4)[C@H](C)O3)[C@@H](C)/C=C/C=C3\CO[C@@H]4[C@H](O)C(C)=C[C@@H](C(=O)O1)[C@]34O)O2
Key: 1

Exercise: Which result was noted for this compound in the test: Oc1ccccc1C=NCCN=Cc1ccccc1O.[Fe]
Key: 0

Exercise: Which result was noted for this compound in the test: Cc1c(C)c(N)c(C)c(C)c1N
Key: 0

Exercise: Which result was noted for this compound in the test: CC1=C2[C@H]3OC(=O)[C@@H](C)[C@@H]3CC[C@@]2(C)C=CC1=O
Key: 0

---

# Test system: SK-MEL-5 melanoma
# Protocol description: NCI-60 one-dose screen, 48 h (100 = growth as untreated, 0 = no growth, -100 = all killed)
# Setup conditions: 10 µM unless noted
Compounds without any hit were thinned out: in the full panel of roughly 83,000, 20% have a hit.
Experimental readout: growth (%)
# value in %; strip the unit string

Guide cases for growth, answers given:
Molecule	System name	growth / %
COc1cc2c(cc1OC)-c1c3c(cc4c1[C@@H](C2)N(C)CC4)OCO3	SK-MEL-5 melanoma	57.9
C/C(=C\c1ccn(-c2ccc(N)c(C(F)(F)F)c2)n1)[C@@H]1C[C@@H]2O[C@]2(C)CCC[C@H](C)[C@H](O)[C@@H](C)C(=O)C(C)(C)[C@@H](O)CC(=O)O1	SK-MEL-5 melanoma	21.5

Exercise: Assign growth to the following record: Cn1cc(-c2csc(-c3cn(CCCCN4CCOCC4)c4ccc(F)cc34)n2)c2cccnc21
Key: 48.1

Exercise: Assign growth to the following record: CC1=CC(=O)CCC12CCOC2=O (stereo not drawn)
Key: 103

Exercise: Assign growth to the following record: Cc1ccc(NC2=N[C@]34CC(=O)CC[C@]3(C)[C@H]3CC[C@]5(C)C(=O)CC[C@H]5[C@@H]3C[C@@H]4S2)c(C)c1
Key: 51.4

Exercise: Assign growth to the following record: O=C1CCCCC1CN1CCCCC1 (stereo not drawn)
Key: 104

Exercise: Assign growth to the following record: Nc1ccc2c(c1)Cc1cc(N)ccc1-2
Key: 95.8

Exercise: Assign growth to the following record: COCC1OC2OC3C(COC)OC(OC4C(COC)OC(OC5C(COC)OC(OC6C(COC)OC(OC7C(COC)OC(OC8C(COC)OC(OC1C(O)C2O)C(O)C8O)C(O)C7O)C(O)C6O)C(O)C5O)C(O)C4O)C(O)C3O (stereo not drawn) (tested in a mixture with another compound)
Key: 103

Exercise: Assign growth to the following record: CCN1C(=O)CC(=O)N(CC)C1=S
Key: 96.8

Exercise: Assign growth to the following record: C[Se]/C=C1/C(=O)N(c2c(Cl)cccc2Cl)c2ccccc21
Key: 38.9

Exercise: Assign growth to the following record: C[C@]12CC[C@H]3[C@@H](C[C@@H]4SC(Nc5cccc(F)c5)=N[C@@]45CC(=O)CC[C@]35C)[C@@H]1CCC2=O
Key: 32.1

Exercise: Assign growth to the following record: CC1(C)S[C@H]2CC[C@H]3OC(=O)[C@@H]1N23
Key: 111
